- system: Casein kinase I isoform epsilon (Homo sapiens, UniProt P49674); also: in the data inactive means no Kd found up to 30 µM
- Sequence (P49674 whole entry, canonical isoform): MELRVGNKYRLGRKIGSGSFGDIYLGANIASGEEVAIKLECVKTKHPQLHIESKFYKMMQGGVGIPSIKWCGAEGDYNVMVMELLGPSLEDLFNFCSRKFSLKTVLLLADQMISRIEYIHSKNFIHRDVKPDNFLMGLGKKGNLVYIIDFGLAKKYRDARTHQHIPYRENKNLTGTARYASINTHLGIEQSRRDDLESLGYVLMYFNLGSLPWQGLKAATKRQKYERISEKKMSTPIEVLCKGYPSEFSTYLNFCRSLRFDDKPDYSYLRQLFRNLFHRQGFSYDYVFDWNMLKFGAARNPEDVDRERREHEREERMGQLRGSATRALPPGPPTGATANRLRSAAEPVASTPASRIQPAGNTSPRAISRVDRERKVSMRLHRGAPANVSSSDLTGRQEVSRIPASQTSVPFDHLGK
Active and inactive are the calls of the source.
Outcomes: Yes for active, No for inactive

- molecule: "CC1(COc2ccc3c(c2)ncn3-c2ccc3cccc(N4CCC(N)CC4)c3n2)COC1 [CRENOLANIB]"
  class.assignment: "No"
- molecule: "CNC(=O)c1ccc(Nc2ncc(C(F)(F)F)c(NCc3nccnc3N(C)S(C)(=O)=O)n2)cc1 [DEFACTINIB]"
  class.assignment: "No"
- molecule: "c1cc(OCCN2CCCCC2)cc(-c2n[nH]c3ccc(-c4nc[nH]n4)cc23)c1 [CC-401]"
  class.assignment: "Yes"

* * *

- system: Casein kinase II subunit alpha' (Homo sapiens); also: in the data inactive means no Kd found up to 30 µM
- Sequence (P19784 whole entry): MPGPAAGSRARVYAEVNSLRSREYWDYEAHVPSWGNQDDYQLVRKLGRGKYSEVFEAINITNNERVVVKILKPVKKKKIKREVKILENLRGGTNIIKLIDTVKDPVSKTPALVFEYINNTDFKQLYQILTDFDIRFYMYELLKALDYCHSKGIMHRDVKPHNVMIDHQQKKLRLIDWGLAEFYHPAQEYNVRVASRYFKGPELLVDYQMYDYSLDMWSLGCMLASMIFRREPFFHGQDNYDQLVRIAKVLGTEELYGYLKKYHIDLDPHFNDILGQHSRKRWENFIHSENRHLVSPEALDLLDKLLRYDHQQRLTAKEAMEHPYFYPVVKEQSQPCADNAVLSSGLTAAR
Activity calls are given as the source filed them.
Outcomes: active, inactive

- compound: "CC1(COc2ccc3c(c2)ncn3-c2ccc3cccc(N4CCC(N)CC4)c3n2)COC1"
  system: "Casein kinase II subunit alpha' (Homo sapiens)"
  class.assignment: "inactive"
- compound: "CNC(=O)c1cc(COc2nnc(Nc3ccc(Cl)cc3)c3ccoc23)ccn1"
  system: "Casein kinase II subunit alpha' (Homo sapiens)"
  class.assignment: "inactive"
- compound: "COc1ccc(-c2ccc3ncc4c(c3c2)n(-c2ccc(N3CCNCC3)c(C(F)(F)F)c2)c(=O)n4C)cn1 [BGT-226 FREE BASE]"
  system: "Casein kinase II subunit alpha' (Homo sapiens)"
  class.assignment: "active"
- compound: "CCc1nc(C(N)=O)c(Nc2ccc(N3CCC(N4CCN(C)CC4)CC3)c(OC)c2)nc1NC1CCOCC1"
  system: "Casein kinase II subunit alpha' (Homo sapiens)"
  class.assignment: "active"
- compound: "COc1ccc2c(OCc3nnc4ccc(-c5ccccc5)nn34)ccnc2c1"
  system: "Casein kinase II subunit alpha' (Homo sapiens)"
  class.assignment: "inactive"
- compound: "NC(=O)c1ccc(N(C(N)=O)c2c(F)cccc2F)nc1-c1ccc(F)cc1F"
  system: "Casein kinase II subunit alpha' (Homo sapiens)"
  class.assignment: "inactive"
- compound: "CNC(=O)c1cccc(-c2ccc3c(N4CCOC[C@@H]4C)nc(N4CCOC[C@@H]4C)nc3n2)c1"
  system: "Casein kinase II subunit alpha' (Homo sapiens)"
  class.assignment: "inactive"

* * *

- system: Mitogen-activated protein kinase 3 (Homo sapiens, UniProt P27361); also: in the data inactive means no Kd found up to 30 µM
- Sequence (P27361 whole entry): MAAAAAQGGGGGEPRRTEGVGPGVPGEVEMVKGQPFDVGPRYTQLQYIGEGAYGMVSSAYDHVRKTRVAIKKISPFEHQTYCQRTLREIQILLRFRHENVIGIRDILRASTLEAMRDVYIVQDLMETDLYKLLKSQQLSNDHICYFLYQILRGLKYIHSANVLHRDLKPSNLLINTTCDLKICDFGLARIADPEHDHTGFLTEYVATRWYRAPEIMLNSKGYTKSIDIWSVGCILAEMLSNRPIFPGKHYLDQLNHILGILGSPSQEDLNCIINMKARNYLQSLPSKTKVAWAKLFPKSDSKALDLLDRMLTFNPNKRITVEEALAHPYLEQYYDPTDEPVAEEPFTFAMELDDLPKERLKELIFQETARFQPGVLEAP
Active and inactive are the calls of the source.
Outcomes: active, inactive

- compound: "COc1cc(F)c(F)c(Nc2ccc(I)cc2F)c1NS(=O)(=O)C1(C[C@H](O)CO)CC1"
  class.assignment: "inactive"
- compound: "COc1cccc(Nc2ncnn3ccc(CN4CC[C@@H](N)[C@H](O)C4)c23)c1"
  class.assignment: "inactive"
- compound: "Cn1cc(-c2[nH]c3cc(NC(=O)[C@H](N)C4CCCCC4)cc4c3c2C=NNC4=O)cn1"
  class.assignment: "active"
- compound: "CCc1cc2c(cc1N1CCC(N3CCOCC3)CC1)C(C)(C)c1[nH]c3cc(C#N)ccc3c1C2=O"
  class.assignment: "inactive"
- compound: "C#Cc1cccc(Nc2ncnc3cc4c(cc23)OCCOCCOCCO4)c1"
  class.assignment: "inactive"
- compound: "CNC(=O)c1cccc(-c2ccc3c(N4CCOC[C@@H]4C)nc(N4CCOC[C@@H]4C)nc3n2)c1"
  class.assignment: "inactive"
- compound: "O=C(NOC[C@H](O)CO)c1ccc(F)c(F)c1Nc1ccc(I)cc1F"
  class.assignment: "inactive"
- compound: "S=C(NCc1ccc2c(c1)OCO2)N1CCN(c2ncnc3c2oc2ccccc23)CC1"
  class.assignment: "inactive"
- compound: "CC[C@@](C)(Nc1ccnc(-c2c[nH]c3ncccc23)n1)C(=O)NCC(F)(F)F"
  class.assignment: "inactive"
- compound: "O=C(NC[C@H](O)CO)c1ccncc1Nc1ccc(I)cc1F"
  class.assignment: "inactive"
- compound: "CN1CCN(c2nc(C3=C(c4c[nH]c5ccccc45)C(=O)NC3=O)c3ccccc3n2)CC1"
  class.assignment: "inactive"
- compound: "COc1cc2ncnc(Nc3ccc(F)c(Cl)c3)c2cc1NC(=O)/C=C/CN1CCCCC1 [DACOMITINIB ANHYDROUS]"
  class.assignment: "inactive"
- compound: "NC[C@@](O)(c1ccc(Cl)cc1)c1ccc(-c2cn[nH]c2)cc1"
  class.assignment: "inactive"
- compound: "CCN(CCCOc1ccc2c(Nc3cc(CC(=O)Nc4cccc(F)c4)n[nH]3)ncnc2c1)CCOP(=O)(O)O"
  class.assignment: "inactive"
- compound: "C=CC(=O)Nc1cccc(Nc2nc(Nc3ccc(N4CCN(C(C)=O)CC4)cc3OC)ncc2C(F)(F)F)c1"
  class.assignment: "inactive"
- compound: "N#CCNC(=O)c1ccc(-c2ccnc(Nc3ccc(N4CCOCC4)cc3)n2)cc1"
  class.assignment: "inactive"
- compound: "COc1cc2ncnc(Nc3ccc(O)cc3)c2cc1OC"
  class.assignment: "inactive"
- compound: "O=C(Nc1ccc(OC(F)(F)F)cc1)c1sccc1NCc1ccnc2ccccc12"
  class.assignment: "inactive"
- compound: "c1cc(OCCN2CCCCC2)cc(-c2n[nH]c3ccc(-c4nc[nH]n4)cc23)c1"
  class.assignment: "inactive"
- compound: "Cc1cc(-c2cc(OC(=O)c3ccccc3)ccc2Cl)cc2nnc(Nc3ccc(OCCN4CCCC4)cc3)nc12"
  class.assignment: "inactive"
- compound: "NC(=O)c1ccc(N(C(N)=O)c2c(F)cccc2F)nc1-c1ccc(F)cc1F"
  class.assignment: "inactive"
- compound: "COc1ccc(-c2ccc3ncc4c(c3c2)n(-c2ccc(N3CCNCC3)c(C(F)(F)F)c2)c(=O)n4C)cn1 [BGT-226 FREE BASE]"
  class.assignment: "inactive"
